- Measurement Target: T1, Human OSCAR-ECD (recombinant extracellular domain of human OSCAR) (human, UniProt Q8IYS5 19-218)
- T1 construct: also called OSACAR-ECD
- T1 chain: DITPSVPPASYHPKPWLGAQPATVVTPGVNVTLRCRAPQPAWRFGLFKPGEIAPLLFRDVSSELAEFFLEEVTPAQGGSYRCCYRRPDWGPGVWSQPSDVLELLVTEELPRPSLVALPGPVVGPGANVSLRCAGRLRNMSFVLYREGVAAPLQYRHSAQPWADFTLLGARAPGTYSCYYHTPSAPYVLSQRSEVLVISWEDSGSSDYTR
- Test: SPR competition, 50 nM OSCAR-ECD premixed with mAb, over immobilised collagen I; note: unit not given here
Measurement Label: binding of OSCAR-ECD to collagen I with 10 µg/mL mAb
Answer field: number only, no words.

>>> measured("7F21A1 (antibody, V domains shown, Mouse anti-human OSCAR mAb; The heavy chain entry covers only VH-CH1 and the start of the hinge) VH: QVQLQQSGAELVRPGTSVKVSCRSSGYAFTNYLIEWIKQRPGQGLEWIGVITPGSGGTNYNENFKDKATLTADKSSNTAYMQLTSLTSDDSAVYFCARSFDYDGAWFAYWGQGTLVTVSA VL: DIQMTQSPASLSVSVGETVTITCRASEKIYSNLAWYQQKQGKSPQLLVYAATNLADGVPSRFSGSGSGTQFSLKINNLQSEDFGSYYCQHFWGTPWTFGGGTKLEIKR")
144
>>> measured("7F10A1 (antibody, V domains shown, Mouse anti-human OSCAR mAb; The heavy chain entry covers only VH-CH1 and the start of the hinge) VH: QVQLQQSGAELARPGASVKLSCKASGYTFTDNYINWVKQRTGQGLEWIGEIYPGSGNTYYNEKFKGKATLTADKSSSTAYMQLSSLTSEDSAVYFCARSANRYDRGDFDYWGQGTPLTVSS VL: QILLTQSPAIMSASPGEKVTMTCSASSSVSYMHWYQQKPGSSPKPWIYDTSNLASGFPARFSGSGSGTSYSLIISSMEAEDAATYYCHQRSSYPYTFGGGTKLEIKR")
55

Kindly review the next binder as well.
Q) Supply measured binding of OSCAR-ECD to collagen I with 10 µg/mL mAb of 3F7A9 (antibody, V domains shown, Mouse anti-human OSCAR mAb (its isotype control is mIgG1); The heavy chain entry covers only VH-CH1 and the start of the hinge; also called 3F7A9-1) VH: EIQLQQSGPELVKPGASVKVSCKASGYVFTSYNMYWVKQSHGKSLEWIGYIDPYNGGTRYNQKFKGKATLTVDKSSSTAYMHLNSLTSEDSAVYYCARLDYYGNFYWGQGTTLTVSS VL: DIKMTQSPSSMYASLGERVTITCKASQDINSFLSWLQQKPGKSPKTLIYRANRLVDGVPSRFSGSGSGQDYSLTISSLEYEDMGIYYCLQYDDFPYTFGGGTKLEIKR in your reply.
A) 132
